studySystem: UniProtKB P09874
Sequence (P09874 whole entry): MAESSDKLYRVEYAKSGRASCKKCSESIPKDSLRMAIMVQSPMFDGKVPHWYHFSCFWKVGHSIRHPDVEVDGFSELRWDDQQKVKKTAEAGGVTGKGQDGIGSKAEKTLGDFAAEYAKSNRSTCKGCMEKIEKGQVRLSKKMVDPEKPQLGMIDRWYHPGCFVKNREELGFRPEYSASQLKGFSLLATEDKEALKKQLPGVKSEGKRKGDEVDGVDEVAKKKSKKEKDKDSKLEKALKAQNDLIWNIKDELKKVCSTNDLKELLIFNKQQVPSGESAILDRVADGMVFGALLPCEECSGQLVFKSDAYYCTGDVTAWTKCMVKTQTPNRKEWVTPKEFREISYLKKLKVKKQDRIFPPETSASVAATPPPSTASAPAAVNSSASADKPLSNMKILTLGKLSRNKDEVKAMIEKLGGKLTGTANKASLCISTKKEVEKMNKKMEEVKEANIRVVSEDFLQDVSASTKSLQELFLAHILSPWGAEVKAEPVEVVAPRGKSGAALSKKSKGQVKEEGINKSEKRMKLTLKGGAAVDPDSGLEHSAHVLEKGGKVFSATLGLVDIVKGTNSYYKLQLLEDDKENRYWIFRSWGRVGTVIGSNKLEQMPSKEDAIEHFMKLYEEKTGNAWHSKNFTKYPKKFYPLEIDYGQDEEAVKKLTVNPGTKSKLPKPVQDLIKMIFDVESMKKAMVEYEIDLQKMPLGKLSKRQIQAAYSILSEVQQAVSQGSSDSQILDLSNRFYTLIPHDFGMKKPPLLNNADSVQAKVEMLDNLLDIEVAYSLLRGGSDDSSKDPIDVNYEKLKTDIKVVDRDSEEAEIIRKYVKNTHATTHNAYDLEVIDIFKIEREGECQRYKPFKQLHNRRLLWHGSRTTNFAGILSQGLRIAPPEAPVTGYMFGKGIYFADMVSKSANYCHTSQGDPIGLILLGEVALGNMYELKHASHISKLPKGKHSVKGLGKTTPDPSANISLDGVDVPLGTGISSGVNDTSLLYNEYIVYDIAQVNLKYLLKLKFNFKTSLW
assayExplanation: Inhibitory activity against PARP1
experimentalEndpoint: pIC50
// pIC50 is dimensionless: -log10 of concentration (M)

[
  {
    "molecule": "O=C(NC1CCCC1)C1CCN(C(=O)c2cccc(Cc3nnc(O)c4ccccc34)c2)CC1",
    "studySystem": "UniProtKB P09874",
    "numericValue": 7.82
  },
  {
    "molecule": "CN(Cc1ccccc1)C(=O)C1CCN(C(=O)c2cccc(Cc3nnc(O)c4ccccc34)c2)CC1",
    "studySystem": "UniProtKB P09874",
    "numericValue": 8.05
  },
  {
    "molecule": "O=C(c1cc(Cc2n[nH]c(=O)c3ccccc23)ccc1F)N1CCCN(CC2CC2)CC1",
    "studySystem": "UniProtKB P09874",
    "numericValue": 8.30
  },
  {
    "molecule": "COc1cccc(CCC(=O)N2CCCN(C(=O)c3cccc(Cc4nnc(O)c5ccccc45)c3)CC2)c1",
    "studySystem": "UniProtKB P09874",
    "numericValue": 8.10
  },
  {
    "molecule": "CCC(C)CN(C)C(=O)C1CCN(C(=O)c2cccc(Cc3n[nH]c(=O)c4ccccc34)c2)CC1 (stereo unspecified)",
    "studySystem": "UniProtKB P09874",
    "numericValue": 8.05
  }
]

Continue with the next molecule.
Supply pIC50 value. Item: O=C(c1cccc(Cc2n[nH]c(=O)c3ccccc23)c1)N1CCOCC1 7.40
